- measured-target: T1, HLA-DR DRB1*0701 (human)
- T1 chain 1: not shown
- T1 chain 2: not shown
- experiment-notes: radiolabeled-peptide inhibition, purified HLA-DR
- assay-setup: remark: other sources report otherwise
experimental-endpoint: pIC50
Field pIC50 (float): negative decimal logarithm of the concentration in molar.

May I ask what pIC50 has been recorded for SLTLQGLGISWLGLR [9019.0055] ?
5.51
